# Tested on: HCMV
# Experiment notes: HCMV titer, plaque or yield reduction
# Assay type: cell-based, human cytomegalovirus (Towne strain) in HFF cells
# Settings: Human betaherpesvirus 5; Table 2; read-out: HCMV Titer, Plaque or Yield Reduction, 50% Inhibitory Concentration
# Lookup of reported IC50 keyed by entry

| Molecule | IC50 (µM) |
| --- | --- |
| Nc1ncnc2c1c(Cl)cn2COCCO | 16 |
| Nc1nc(O)c2ncn(COC(CO)CO)c2n1 [Ganciclovir (DHPG), reference compound] | 8.8 |
| Nc1ncnc2c1c(I)cn2COCCO | 24 |
| Nc1nc2c(ncn2COCCO)c(=O)[nH]1 [Acyclovir, reference compound] | 63 |

* * *

Reported values of pIC50 for individual entries
# Tested on: HCMV
# Experiment notes: HCMV plaque (focus) reduction assay
# Format: cell-based
# Settings: Human betaherpesvirus 5; Table 1; HFF cells; read-out: 50% Inhibitory Concentration HCMV Plaque
pIC50: −log10 of the molar value.

| Compound | pIC50 |
| --- | --- |
| Nc1ncnc2c1c(I)cn2COC(CO)CO [UMJD 330] | 5.51 |
| OCC(CO)OCn1cc(Br)c2c(NO)ncnc21 [UMJD 299] | 5.92 |
| Nc1ncnc2c1c(Br)cn2COCCO [UMJD 102] | 5.46 |
| NC(=S)c1cn(COC(CO)CO)c2ncnc(N)c12 [UMJD 239] | 5.10 |
| Nc1ncnc2c1c(Cl)cn2COCCO [UMJD 100] | 4.66 |
| OCC(CO)OCn1cc(I)c2c(NO)ncnc21 [UMJD 329] | 4.74 |
